- Test Summary: recombinant UMI read abundance after kanamycin selection (control-corrected) (log10(CPM+1)); higher = more efficient recombination; extreme values may be limits of the assay; sequences stand for … in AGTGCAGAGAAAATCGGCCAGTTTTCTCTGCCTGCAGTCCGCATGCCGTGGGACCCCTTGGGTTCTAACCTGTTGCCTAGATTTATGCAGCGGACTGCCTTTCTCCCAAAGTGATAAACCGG…AGGTTGGTTTCACT; site = the 11-nt donor;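 further: IS621 bridge recombinase in Escherichia coli cells against a fixed T5 target plasmid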
# recombinant UMI read abundance (log10) listing for each entry below
Measured Quantity: recombinant UMI read abundance (log10)

[[record]]
chain_sequence = "TAGAATACATGGACCGGTTTTCCCGGTAATCCGTATTTGCC (site TAGAATACTGG)"
measured_quantity = "recombinant UMI read abundance (log10)"
reported_value = 0

[[record]]
chain_sequence = "GTAGGTACATGGACCGGTTTTCCCGGTAATCCGTATTTGAC (site GTATGTACTGT)"
measured_quantity = "recombinant UMI read abundance (log10)"
reported_value = 0.986

[[record]]
chain_sequence = "TGGGAGTCATGGACCGGTTTTCCCGGTAATCCGTATTTGCC (site GGGGAGTCTGG)"
measured_quantity = "recombinant UMI read abundance (log10)"
reported_value = 0.0303

[[record]]
chain_sequence = "TCTGCGGCATGGACCGGTTTTCCCGGTAATCCGTATTTGCT (site TTTGCGGCTAG)"
measured_quantity = "recombinant UMI read abundance (log10)"
reported_value = 0.0104

[[record]]
chain_sequence = "GTGCAGGCATGGACCGGTTTTCCCGGTAATCCGTATTTGTG (site GTGTAGGCTCA)"
measured_quantity = "recombinant UMI read abundance (log10)"
reported_value = 0.475

